Label TRUE when O2 permeability < 20 Barrer; otherwise FALSE.

Worked set:
*Sc1ccc(*)cc1 (repeat unit) | TRUE
*C(=C(*)c1ccc2c(c1)C(C)(C)c1ccccc1-2)c1cc(F)cc(F)c1 (repeat unit) | FALSE
*c1ccc(Oc2ccc(S(=O)(=O)c3ccc(Oc4ccc(S(*)(=O)=O)cc4)cc3)cc2)cc1 (repeat unit) | TRUE
*Oc1ccc2c(c1)C1(CC2(C)C)CC(C)(C)c2ccc(OC(=O)c3ccc(C(*)=O)cc3)cc21 (repeat unit) | TRUE
*Oc1ccc2c(c1)-c1nc3cc(Oc4ccc5nc6n(c5c4)C(=O)c4cc(*)ccc4-6)ccc3n1C2=O (repeat unit) | TRUE

Inquiry: O2 permeability strictly < 20 Barrer for this compound? *CN1CN(*)c2cc3c(cc21)C1(C)CCC3(C)c2cc(*)c(*)cc21 (repeat unit)
Reply text: FALSE

Inquiry: O2 permeability strictly < 20 Barrer for this compound? *c1ccc(-c2ccc(Oc3ccc4c(c3)C3(CC4(C)C)CC(C)(C)c4ccc(Oc5ccc(-c6ccc(N7C(=O)c8ccc(Oc9ccc(C(C)(C)c%10ccc(Oc%11ccc%12c(c%11)C(=O)N(*)C%12=O)cc%10)cc9)cc8C7=O)cc6)cc5C(F)(F)F)cc43)c(C(F)(F)F)c2)cc1 (repeat unit)
Reply text: TRUE

Inquiry: O2 permeability strictly < 20 Barrer for this compound? *c1ccc2c(c1)Oc1ccc(C3(c4ccc5c(c4)Oc4ccc(*)cc4O5)c4ccccc4-c4ccccc43)cc1O2 (repeat unit)
Reply text: TRUE

Inquiry: O2 permeability strictly < 20 Barrer for this compound? *C(C)=C(*)CCC(C)C (repeat unit)
Reply text: FALSE

Inquiry: O2 permeability strictly < 20 Barrer for this compound? *Oc1cc2c(cc1O*)C1(c3cc(C(C)(C)C)ccc3-2)c2cc(C(C)(C)C)ccc2-c2cc3c(cc21)Oc1c(C#N)c(*)c(*)c(C#N)c1O3 (repeat unit)
Reply text: FALSE

Inquiry: O2 permeability strictly < 20 Barrer for this compound? *C=C(*)C(C)(C)C (repeat unit)
Reply text: FALSE

Inquiry: O2 permeability strictly < 20 Barrer for this compound? *c1cc(C)c(C)c(N2C(=O)c3ccc(Oc4cc(C)ccc4Oc4ccc5c(c4)C(=O)N(*)C5=O)cc3C2=O)c1C (repeat unit)
Reply text: TRUE

Inquiry: O2 permeability strictly < 20 Barrer for this compound? *C/C=C(/C)C* (repeat unit)
Reply text: FALSE

Inquiry: O2 permeability strictly < 20 Barrer for this compound? *Oc1ccc(N2C(=O)CCC23CCC(=O)N3c2ccc(Oc3c(F)c(F)c(COC(C4CCCC(C(OCc5c(F)c(F)c(*)c(F)c5F)(C(F)(F)F)C(F)(F)F)C4)(C(F)(F)F)C(F)(F)F)c(F)c3F)cc2)cc1 (repeat unit)
Reply text: TRUE

Inquiry: O2 permeability strictly < 20 Barrer for this compound? *Oc1ccc(S(=O)(=O)c2ccc(Oc3ccc(C(c4ccc(*)cc4)(C(F)(F)F)C(F)(F)F)cc3)cc2)cc1 (repeat unit)
Reply text: TRUE

###

Label Criterion met when CH4 permeability < 0.5 Barrer; otherwise Criterion not met.

Worked set:
*c1cccc(C(c2cccc(N3C(=O)c4ccc(C(c5ccc6c(c5)C(=O)N(*)C6=O)(C(F)(F)F)C(F)(F)F)cc4C3=O)c2)(C(F)(F)F)C(F)(F)F)c1 (repeat unit) | Criterion met
*Oc1ccc(C(C)(C)c2cccc(C(C)(C)c3ccc(Oc4ccc(S(=O)(=O)c5ccc(*)cc5)cc4)cc3)c2)cc1 (repeat unit) | Criterion met

Inquiry: CH4 permeability strictly < 0.5 Barrer for this molecule? *c1ccc2c(-c3c(O)ccc4cc(N5C(=O)c6ccc(Oc7ccc8c(c7)C(=O)N(*)C8=O)cc6C5=O)ccc34)c(O)ccc2c1 (repeat unit)
Reply text: Criterion met

Inquiry: CH4 permeability strictly < 0.5 Barrer for this molecule? *Oc1ccc(C(c2ccc(Oc3ccc(C(=O)c4ccc(C(c5ccc(C(=O)c6ccc(*)cc6)cc5)(C(F)(F)F)C(F)(F)F)cc4)cc3)cc2)(C(F)(F)F)C(F)(F)F)cc1 (repeat unit)
Reply text: Criterion met

Inquiry: CH4 permeability strictly < 0.5 Barrer for this molecule? *C(=C(*)c1ccc2c(c1)C(C)(C)CC2(C)C)c1ccc(Br)cc1 (repeat unit)
Reply text: Criterion not met

Inquiry: CH4 permeability strictly < 0.5 Barrer for this molecule? *C(=C(*)c1ccc2c(c1)C(C)(C)CC2(C)C)c1cc(F)cc(F)c1 (repeat unit)
Reply text: Criterion not met

###

Would you kindly list CO2 permeability for each of these compounds?
One number for each entry, in Barrer.

Solved cases below.
*Nc1ccc(C(C)(C)c2ccc(NC(=O)c3ccc(Oc4cc(C(C)(C)C)c(Oc5ccc(C(*)=O)cc5)cc4C(C)(C)C)cc3)c(C)c2)cc1C (repeat unit) | 21
*NCCCCCCCCCCC(*)=O (repeat unit) | 1
*c1ccc2c(-c3c(OC(C)=O)ccc4cc(N5C(=O)c6ccc(C(=O)c7ccc8c(c7)C(=O)N(*)C8=O)cc6C5=O)ccc34)c(OC(C)=O)ccc2c1 (repeat unit) | 3.55

For each of the compounds below, state CO2 permeability.
1. *Oc1ccc2c(c1)C1(CC2(C)C)CC(C)(C)c2ccc(OC(=O)c3ccc(C(*)=O)cc3)cc21 (repeat unit)
2. *Oc1ccc(S(=O)(=O)c2ccc(Oc3ccc(C(c4ccc(*)cc4)(C(F)(F)F)C(F)(F)F)cc3)cc2)cc1 (repeat unit)
3. *CCSS* (repeat unit)
4. *c1ccc(Oc2ccc(-c3ccc(-c4ccc(-c5ccc(Oc6ccc(N7C(=O)c8ccc(C(c9ccc%10c(c9)C(=O)N(*)C%10=O)(C(F)(F)F)C(F)(F)F)cc8C7=O)cc6)c(C(F)(F)F)c5)cc4)cc3)cc2C(F)(F)F)cc1 (repeat unit)

Reply text:
1. 55.7
2. 8.45
3. 3.14
4. 36.6

###

Would you kindly list CH4 permeability for each of these compounds?
One number for each entry, in Barrer.

Solved cases below.
*C(F)(F)C1(F)OC(F)(F)C(F)(F)C1(F)C(*)(F)F (repeat unit) | 2
*Nc1ccc(*)cc1 (repeat unit) | 0.0094
*Oc1c(Br)cc(C(c2cc(Br)c(OC(*)=O)c(Br)c2)(C(F)(F)F)C(F)(F)F)cc1Br (repeat unit) | 0.89
*C(=C(*)c1ccc2c(ccc3ccccc32)c1)c1ccc([Si](C)(C)C)cc1 (repeat unit) | 500
*c1ccc(Cc2ccc(N3C(=O)c4ccc(-c5ccc6c(c5)C(=O)N(*)C6=O)cc4C3=O)cc2Br)c(Br)c1 (repeat unit) | 0.0054

For each of the compounds below, state CH4 permeability.
1. *O[Si](*)(C)CCC(F)(F)F (repeat unit)
2. *c1ccc(Sc2ccc(N3C(=O)c4ccc(-c5ccc6c(c5)C(=O)N(*)C6=O)cc4C3=O)cc2)cc1 (repeat unit)
3. *CC(*)c1ccc(C[Si](C)(C)C)cc1 (repeat unit)
4. *=CC1CC(C=*)C2C(=O)N(c3ccccc3)C(=O)C12 (repeat unit)

Reply text:
[201, 0.0164, 7.8, 0.54]

###

Assign a class from recorded N2 permeability; defined classes: low: < 0.6 Barrer; mid: ≥ 0.6 Barrer and < 10 Barrer; high: ≥ 10 Barrer

*c1c(C)cc(-c2cc(C)c(N3C(=O)c4cc5c(cc4C3=O)C3(C(C)C)c4ccccc4C5(C(C)C)c4cc5c(cc43)C(=O)N(*)C5=O)c3ccccc23)c2ccccc12 (repeat unit) | high
*Oc1c(C)cc(*)cc1C (repeat unit) | mid
*CC(*)C(=O)OCCCCCCCCCCCCCC (repeat unit) | high

Now turn to the next compound.
Inquiry: Form: Item = *Oc1ccc(C(=O)c2ccccc2-c2ccccc2C(=O)c2ccc(Oc3ccc(C(c4ccc(*)cc4)(C(F)(F)F)C(F)(F)F)cc3)cc2)cc1 (repeat unit) ; Class = ?
Reply text: low

###

Parameter: CO2 permeability (Barrer)
Numbers only, in Barrer.

Solved cases below.
*Nc1ccc(*)cc1OCC (repeat unit) | 2.22
*Oc1ccc(S(=O)(=O)c2ccc(Oc3c(C)cc(C(c4cc(C)c(*)c(C)c4)(C(F)(F)F)C(F)(F)F)cc3C)cc2)cc1 (repeat unit) | 72
*C(=C(*)c1ccc(C[Si](C)(C)C)cc1)c1ccccc1 (repeat unit) | 640
*Oc1ccc(S(=O)(=O)c2ccc(Oc3c(C)cc(-c4cc(C)c(*)c(C)c4C)c(C)c3C)cc2)cc1 (repeat unit) | 25.5

For each of the molecules below, state CO2 permeability.
1. *CC(*)(C)C(=O)OCCOCCOCC (repeat unit)
2. *c1cccc(-c2nc3cc(-c4ccc5[nH]c(*)nc5c4)ccc3[nH]2)c1 (repeat unit)
3. *Nc1ccc(C(C)(C)c2ccc(NC(=O)c3ccc(Oc4cc(C(C)(C)C)c(Oc5ccc(C(*)=O)cc5)cc4C(C)(C)C)cc3)cc2)cc1 (repeat unit)
4. *c1ccc(-c2ccc(Oc3ccc4c(c3)C3(CC4(C)C)CC(C)(C)c4ccc(Oc5ccc(-c6ccc(N7C(=O)c8ccc(Oc9ccc(C(C)(C)c%10ccc(Oc%11ccc%12c(c%11)C(=O)N(*)C%12=O)cc%10)cc9)cc8C7=O)cc6)cc5C(F)(F)F)cc43)c(C(F)(F)F)c2)cc1 (repeat unit)
5. *C(=C(*)c1ccc2c(c1)C(C)(C)CC2(C)C)c1cc(F)cc(F)c1 (repeat unit)
6. *C(=C(*)c1ccc2c(c1)C(C)(C)CC2(C)C)c1ccc(Br)cc1 (repeat unit)
7. *OC(=O)Oc1c(Br)cc(C(C)(C)c2cc(Br)c(*)c(Br)c2)cc1Br (repeat unit)
8. *c1ccc(Oc2ccc(-c3cccc(-c4ccc(Oc5ccc(N6C(=O)c7ccc(C(c8ccc9c(c8)C(=O)N(*)C9=O)(C(F)(F)F)C(F)(F)F)cc7C6=O)cc5)c(C(F)(F)F)c4)n3)cc2C(F)(F)F)cc1 (repeat unit)

Reply text:
1. 133
2. 0.16
3. 13
4. 23.9
5. 36100
6. 32800
7. 4.21
8. 51.9
